PROTOCOL_NOTES: Selectivity ratio of IC50 for electric eel AChE to IC50 for equine serum BuChE
MEASUREMENT_NAME: Ratio IC50
Give a plain numeric answer without units written out.

Examples with their reported Ratio IC50 follow.
Inquiry: If you can, please state the reported Ratio IC50 value of S=C1NC2=C(CNC/C2=C\c2ccccc2)C(c2ccccc2)N1 (centres undefined) .
Reply text: 5.09

Inquiry: How about S=C1NC2=C(CNC/C2=C\c2cccc3ccccc23)C(c2cccc3ccccc23)N1 (centres undefined) ?
Reply text: 0.25

Inquiry: What do we get for Fc1ccccc1/C=C1\CNCC2=C1NC(=S)NC2c1ccccc1F (centres undefined) ?
Reply text: 6.21

---
Inquiry: Which measured Ratio IC50 value corresponds to Cc1ccc(/C=C2\CNCC3=C2NC(=O)NC3c2ccc(C)cc2)cc1 (centres undefined) ?
Reply text: 6.56

---

PROTOCOL_NOTES: Selectivity ratio of IC50 for equine serum BuChE to IC50 for electric eel AChE
MEASUREMENT_NAME: Ratio IC50
Please give only the number in your answer, with no unit.

Known results for compounds:
Inquiry: Looking for the measured Ratio IC50 of O=C1NC2=C(CNC/C2=C\c2ccccc2F)C(c2ccccc2F)N1 (stereo not given) , can you help?
Reply text: 0.18

Inquiry: Item: O=C1NC2=C(CNC/C2=C\c2ccccc2Cl)C(c2ccccc2Cl)N1 (stereo not given)
Reply text: 0.1

Inquiry: # iterate: Cc1ccccc1/C=C1\CNCC2=C1NC(=S)NC2c1ccccc1C (stereo not given)
Reply text: 0.08

Inquiry: # iterate: O=C1NC2=C(CNC/C2=C\c2cccc([N+](=O)[O-])c2)C(c2cccc([N+](=O)[O-])c2)N1 (stereo not given)
Reply text: 0.37

Inquiry: Now this one: Cc1ccc(/C=C2\CNCC3=C2NC(=O)NC3c2ccc(C)cc2)cc1 (stereo not given)
Reply text: 0.15

Inquiry: Again, but for O=[N+]([O-])c1cccc(/C=C2\CNCC3=C2NC(=S)NC3c2cccc([N+](=O)[O-])c2)c1 (stereo not given)
Reply text: 0.24

Inquiry: Next: Fc1ccc(/C=C2\CNCC3=C2NC(=S)NC3c2ccc(F)cc2)cc1 (stereo not given)
Reply text: 0.77

Inquiry: Quick one: Cc1ccc(/C=C2\CNCC3=C2NC(=S)NC3c2ccc(C)cc2)cc1 (stereo not given)
Reply text: 0.17

---
Inquiry: Give its Ratio IC50 value. Item: Cc1ccccc1/C=C1\CNCC2=C1NC(=O)NC2c1ccccc1C (stereo not given)
Reply text: 0.13

Inquiry: Next up: S=C1NC2=C(CNC/C2=C\c2cccc3ccccc23)C(c2cccc3ccccc23)N1 (stereo not given)
Reply text: 4.07

---

PROTOCOL_NOTES: Selectivity ratio of IC50 for electric eel AChE to IC50 for equine serum BuChE
MEASUREMENT_NAME: Ratio IC50
Quick one: just the number, no unit, thanks!

For orientation, consider the following solved cases.
Inquiry: Query (compound): O=C1NC2=C(CNC/C2=C\c2cccc([N+](=O)[O-])c2)C(c2cccc([N+](=O)[O-])c2)N1 (stereo not given) ; field requested: Ratio IC50
Reply text: 2.73

Inquiry: Another compound: S=C1NC2=C(CNC/C2=C\c2ccc(Br)cc2)C(c2ccc(Br)cc2)N1 (stereo not given)
Reply text: 7.2

---
Inquiry: What measured Ratio IC50 goes with O=[N+]([O-])c1cccc(/C=C2\CNCC3=C2NC(=S)NC3c2cccc([N+](=O)[O-])c2)c1 (stereo not given) ?
Reply text: 4.25

Inquiry: # repeat for O=C1NC2=C(CNC/C2=C\c2ccc(Br)cc2)C(c2ccc(Br)cc2)N1 (stereo not given)
Reply text: 2.54

Inquiry: Moving on to O=C1NC2=C(CNC/C2=C\c2ccc(Cl)cc2)C(c2ccc(Cl)cc2)N1 (stereo not given)
Reply text: 2.2

Inquiry: One more compound: COc1ccccc1/C=C1\CNCC2=C1NC(=O)NC2c1ccccc1OC (stereo not given)
Reply text: 3.75
